- experiment_notes: gradient 5% acetonitrile 3 min, to 50% in 2 min, to 85% in 15 min, held 3 min, 100 µL/min
- run_parameters: column: Zorbax Extend-C18 2.1 x 50 mm; eluents: water / acetonitrile, 0.1% formic acid
property: RP-LC retention time (s)

                                   compound              property  observed_value
0                   NC(=O)C1(c2ccccc2Cl)CC1  RP-LC retention time             692
1  Cc1ccc(Nc2nc(C)cc(N3CCN(S(=O)(=O)c4ccc(C(F)(F)F)cc4)CC3)n2)cc1  RP-LC retention time             851
2  CC(=O)N1c2ccc(S(=O)(=O)N3CCCCC3)cc2CC1C(=O)Nc1ccc(C)c(C)c1 (stereo not given)  RP-LC retention time             966
3    Cc1noc(-c2ccc(NC(=O)COc3ccccc3F)cc2)n1  RP-LC retention time             832
4  Cc1cc(C)cc(NC(=O)Cc2csc3nc(-c4ccc(C)c(C)c4)cn23)c1  RP-LC retention time             966

* * *

- experiment_notes: gradient 5% acetonitrile 3 min, to 50% in 2 min, to 85% in 15 min, held 3 min, 100 µL/min
- run_parameters: column: Zorbax Extend-C18 2.1 x 50 mm; eluents: water / acetonitrile, 0.1% formic acid
Classify: Y when RP-LC retention time is strictly less than 700 s; N when RP-LC retention time is not.

In [3]: df
Out[3]:
                                    compound  class_assignment
 0  Cc1ccc(C2=NC3(CCN(C(=O)c4cccs4)CC3)ON2)cc1                 N
 1  O=C(CCc1nc2cccnc2n1Cc1cccs1)NCCc1c[nH]c2ccccc12                 N
 2  Cc1ccc(S(=O)(=O)c2cnc(N3CCN(C(=O)OC(C)(C)C)CC3)nc2N)cc1                 N
 3  CC(CC(=O)O)CC(=O)Nc1nc(-c2ccccc2)c(-c2ccccc2)s1 (stereo not given)                 N
 4  COc1ccc(C2(C(=O)N3C[C@@H](CO)[C@H](c4nc(C)no4)C3)CC2)cc1                 Y
 5  CCOc1ccc(CC(=O)N2CCN(c3c(C)n(C)c(=O)n(C)c3=O)CC2)cc1OCC                 N
 6  COc1ccc(-c2noc(CN3C(=O)COc4ccc(C)cc43)n2)cc1OC                 N
 7  CC(CCc1ccccc1)NC(=O)Cn1nc2c(Oc3ccccc3)nccn2c1=O (stereo not given)                 N
 8  CC(=O)Nc1nsc(N2CCC(C(=O)NCc3ccc(F)cc3F)CC2)n1                 N
 9  O=C(c1cc(=O)c2ccccc2o1)N1CC2CC(C1)c1cccc(=O)n1C2 (stereo not given)                 Y
10        Cc1nc(OCC(=O)NCc2ccccc2)c2ccccc2n1                 Y
11  O=C(Cn1ncc2c(N3CCN(c4ccccn4)CC3)ncnc21)Nc1cccc(Br)c1                 Y
12      COc1ccccc1C1(CNC(=O)NC2CCCCC2)CCOCC1                 N

* * *

- experiment_notes: gradient 5% acetonitrile 3 min, to 50% in 2 min, to 85% in 15 min, held 3 min, 100 µL/min
- run_parameters: column: Zorbax Extend-C18 2.1 x 50 mm; eluents: water / acetonitrile, 0.1% formic acid
Reported RP-LC retention time is given for each of the following compounds.
property: RP-LC retention time (s)

                                   compound  observed_value
0  CCOC(=O)c1c(NC(=O)c2ccc(S(=O)(=O)N(C)C)cc2)sc(C)c1C            1170
1  Cc1cccc(-c2noc(Cn3ncn4nc(-c5ccc(C)cc5C)cc4c3=O)n2)c1             878
2  Cc1ccc(C)c(NC(=O)CN2CCN(C(=O)Nc3ccc(Br)cc3)CC2=O)c1             789
3                    CSc1n[nH]c(-c2cccs2)n1             714
4  O=C(Nc1ccc(N2CCOCC2)cc1)c1ccc2nc(-c3ccccc3)cn2c1             646
5  CN1CCN(CCCNc2nnc(-c3nc(-c4ccc(F)cc4)no3)c3ccccc23)CC1             575
6  CCOC(=O)c1nc(Nc2ccc(C(C)C)cc2)c2ccccc2n1            1020
7  CC(O)(CS(=O)(=O)c1ccc(F)cc1)C(=O)Nc1ccc(C#N)c(C(F)(F)F)c1 (centres undefined)             992
8  Cc1c(C(=O)NC2CCCCC2)cnn1-c1cc(-c2nc(C3CC3)no2)ccn1            1060

* * *

- experiment_notes: gradient 5% acetonitrile 3 min, to 50% in 2 min, to 85% in 15 min, held 3 min, 100 µL/min
- run_parameters: column: Zorbax Extend-C18 2.1 x 50 mm; eluents: water / acetonitrile, 0.1% formic acid
property: RP-LC retention time (s)

                               query_smiles  readout_units  observed_value
0  CC(C)NC(=O)c1nc(-c2cn(-c3cccc(F)c3)nn2)no1              s             834
1  CCCNC(=O)c1nnc(-c2ccc(S(=O)(=O)N3CCCC3)cc2)o1              s             824
2  Cc1ccc(CC(=O)N2CCC(COc3ccc(C(=O)NC4CC4)cc3)CC2)cc1              s             856

* * *

- experiment_notes: gradient 5% acetonitrile 3 min, to 50% in 2 min, to 85% in 15 min, held 3 min, 100 µL/min
- run_parameters: column: Zorbax Extend-C18 2.1 x 50 mm; eluents: water / acetonitrile, 0.1% formic acid
Catalogue of RP-LC retention time values
property: RP-LC retention time (s)

In [3]: df
Out[3]:
                                    molecule  observed_value
 0  CSc1cccc(NC(=O)C2CCCN(c3cnc4nc(C)c(C)nc4c3)C2)c1 (centres undefined)             807
 1  COc1ccc(-c2nc(Cc3noc(-c4ccccc4OC)n3)c(C)o2)cc1            1070
 2     Cc1nc(-c2cccnc2)nc2c1CCC(=O)N2CCN(C)C             503
 3  Cc1ccc(CNC(=O)C2CC(=O)N(c3ccc4oc(C)nc4c3)C2)cc1 (centres undefined)             732
 4     COc1ccc(C)cc1NC(=O)CCc1cccc2[nH]ccc12             942
 5  CC(C)CN1C(=O)c2cccn2CC1C(=O)NCCCOC1CCN(C(C)C)CC1 (centres undefined)             598
 6    COCCn1cc(CCNC(=O)Nc2ccccc2Br)c2cccnc21             763
 7  O=C(c1ccc(F)c(Cl)c1)N1CCN(c2cc(-c3ccc(F)cc3)[nH]n2)CC1             894
 8    NC(=O)c1ccccc1OCC(=O)Nc1ccc(Cl)c(Cl)c1             895
 9  Cc1ccc(-c2ccc(=O)n(CCc3nc(-c4ccc(F)cc4)no3)n2)cc1C            1100
10  O=C(NCCc1csc(-c2ccccc2)n1)[C@H]1CCCN1S(=O)(=O)c1cccc(Cl)c1             994
11  O=C(N[C@H]1C[C@@H]2C[C@H]1CN2C(=O)c1ccc(Cl)s1)c1cccnc1             659
12  Cn1nccc1-c1cccc(-c2noc(COc3ccc(Cl)cc3)n2)c1            1120
13          COc1ccc2nc(C(=O)NCc3ccccc3)cn2n1             772

* * *

This listing pairs compounds with measured RP-LC retention time.
- experiment_notes: gradient 5% acetonitrile 3 min, to 50% in 2 min, to 85% in 15 min, held 3 min, 100 µL/min
- run_parameters: column: Zorbax Extend-C18 2.1 x 50 mm; eluents: water / acetonitrile, 0.1% formic acid
property: RP-LC retention time (s)

In [3]: df
Out[3]:
                                    compound  observed_value
 0   CC(C)c1noc(C2(NC(=O)c3ccccc3F)CCCCC2)n1            1020
 1   COc1ccccc1C(=O)Nc1cnc(-c2ccc(Cl)cc2)nc1            1170
 2  Cc1cc(Cl)ccc1NC(=O)CN(C)S(=O)(=O)c1cc(C(=O)N2CCC(C)CC2)n(C)c1             934
 3  Cc1nc(C2(C)CCN(S(=O)(=O)c3ccccc3C(F)(F)F)CC2)no1             963
 4  Cc1ccn2cc(-c3cccc(S(=O)(=O)N4CCCC4)c3)nc2c1             611
 5  CCc1ccc2c(c1)-c1ccccc1S(=O)(=O)N2CC(=O)NCCN1CCOCC1             671
 6  Cc1ccc(Nc2c(-c3ccc(N(C)C)cc3)nc3c(C)cccn23)cc1             805
 7  Cc1ccc(NC(=O)C2(C)Oc3cccnc3NC2=O)cc1 (centres undefined)             727
 8  Cc1ccc2c(C)nc(NC3=NCN(CC4CCCO4)CN3)nc2c1 (centres undefined)             660
 9       CCn1c(C(=O)NCc2ccc(Cl)cc2)cc2sccc21            1210
10  Cc1cc(=O)n(Cc2ccc(OC(F)(F)F)cc2)c(Nc2ccc(F)c(F)c2)n1            1300
11  COc1ccccc1OCCNC(=O)C1CCN(c2nnc3ccc(Cl)cn23)CC1             707
12    c1cc(-c2nc(-c3ccnc(N4CCCC4)c3)no2)ccn1             594
13           Cc1ccc(NC(=O)c2nc(C)oc2C)c(C)c1             753
